# ASSAY SUMMARY: protein stability index of a GFP-peptide fusion (yeast GPS) (PSI 1-4); higher = more stable; sorted into four equal gates, so the index is relative within each strain
# STATED CONDITIONS: doa10∆
If the reported protein stability index equals or exceeds 3, assign yes (1). If not, assign no (0).

Example entries begin here.
Exercise: Does protein stability index meet or surpass 3 for LNLSLHKLDLAKRNLDA [SMC2] ?
Key: no (0)

Exercise: Assess whether reported protein stability index for TALEHKVVNGNSADAAY [FAS2] sits at 3 or higher.
Key: no (0)

Exercise: Entry SWVQPRIISGDQITKMK [RPN9] : is its protein stability index no less than 3?
Key: yes (1)

Next:
Exercise: Determine whether this sequence has protein stability index no lower than 3: FDYSVILNSIPAAANLD [YJL039C/NUP192]
Key: no (0)

Exercise: Decide: is the reported value of protein stability index for PRLGSIDRNLKCQTCQE [RPO21] equal to or greater than 3?
Key: no (0)

###

Items are presented alongside their recorded protein stability index.
# ASSAY SUMMARY: protein stability index of a GFP-peptide fusion (yeast GPS) (PSI 1-4); higher = more stable; sorted into four equal gates, so the index is relative within each strain
# STATED CONDITIONS: san1∆

Exercise: // lookup protein stability index for YGFSNKEYISRLWHTLK [SNF5]
Key: 2.39

Exercise: Recorded protein stability index of NSITSGGLKSCDLDFPL [YDL116W/NUP84] , please.
Key: 3.32

Others:
Exercise: Which protein stability index is reported for this sequence? IMSTEAHVNKVTEETTK [SIR4]
Key: 2.97

Exercise: Using the record for RRGAHGSELSSKIRKIH [SIR3] , report its protein stability index.
Key: 2.57

###

# ASSAY SUMMARY: protein stability index of a GFP-peptide fusion (yeast GPS) (PSI 1-4); higher = more stable; sorted into four equal gates, so the index is relative within each strain
# STATED CONDITIONS: ubr1∆
QUANTITY MEASURED: protein stability index
Could you respond with only the numeric value?

Here are 3 sequences together with their reported answers.
Exercise: Requested field: protein stability index. Item: PFNQGSKQDVEALIEFI [FAS2]
Key: 3.08

Exercise: // protein stability index lookup, key: NENNSNGGEDTSVENEG [REC8]
Key: 3.07

Exercise: What value of protein stability index has been recorded for this entry: NNLFRIIAELSFLKVDP [YJL039C/NUP192]
Key: 3.07

***
Exercise: What protein stability index value was documented for this sequence, LYQLVDIRDSSCQGNVI [YMR129W/POM152] ?
Key: 2.96

Exercise: Look at this sequence and give its reported protein stability index. AHAQHQPSQQPQQAQQQ [GAL11]
Key: 2.98

Exercise: Which protein stability index value belongs to TDENTPSADGADKKDDS [ITC1] ?
Key: 2.98

Exercise: Entry YKMVQEQLSKQRDLYKR [SMC2] has what protein stability index?
Key: 3.09

Exercise: Any idea what its protein stability index is? The sequence is RYENNDDDERVEYNLFT [BRN1]
Key: 3.04

###

# ASSAY SUMMARY: protein stability index of a GFP-peptide fusion (yeast GPS) (PSI 1-4); higher = more stable; sorted into four equal gates, so the index is relative within each strain
# STATED CONDITIONS: pdr5∆
QUANTITY MEASURED: protein stability index
Please give only the number in your answer, with no unit.

These solved cases illustrate the format of a correct answer.
Exercise: May I ask what protein stability index has been recorded for LIITRKAFKNNSSKYYI [SMC4] ?
Key: 2.98

Exercise: Recorded protein stability index for SAIRKCVRVQLIKNGKK [RPS23A] , please?
Key: 3.02

New cases:
Exercise: Which protein stability index value belongs to GILRRKSESDELQMRSF [RRP4] ?
Key: 3.04

Exercise: Item DDHNGEVWSVSWNLTGT [YGL100W/SEH1] has what recorded protein stability index?
Key: 3.04
